Source of measurements: patent US3995044A

Provide the reported MIC of each item.
# Tested on: M. bovis Ravenal
# Procedure Text: microbe, parasite or virus in culture
# Assay type: cell-based
# Test Settings: Mycobacterium tuberculosis variant bovis, read-out: MIC, M. bovis Ravenal
Record the value in µg/mL, omitting the unit from your answer.

Query :: Notebook: pull reported MIC for M. bovis Ravenal, entry O=C(NCc1cnc2ccccc2c1)c1cc([N+](=O)[O-])cc([N+](=O)[O-])c1 [Example 9]
Result :: 0.4

Query :: Notebook: pull reported MIC for M. bovis Ravenal, entry O=C(NCc1ccc2ccccc2n1)c1cc([N+](=O)[O-])cc([N+](=O)[O-])c1 [Example 15]
Result :: 0.8

Query :: Notebook: pull reported MIC for M. bovis Ravenal, entry O=C(NCc1ccccn1)c1cc([N+](=O)[O-])cc([N+](=O)[O-])c1 [Example 1]
Result :: 3.1

Query :: Notebook: pull reported MIC for M. bovis Ravenal, entry O=C(NCC1CCC=CO1)c1cc([N+](=O)[O-])cc([N+](=O)[O-])c1 (stereo not shown) [Example 22]
Result :: 3.1
